B1: SNAP91 (parent)
chain: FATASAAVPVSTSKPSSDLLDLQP

Variants of: B1
Test: protein stability index of a GFP-peptide fusion (GPS, HEK-293T) (PSI 1-6); higher = more stable;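 note: lentivirally expressed fusions sorted by FACS into six bins by GFP to DsRed ratio, PSI derived from sequencing read proportions per bin multiplied by bin number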
Settings: c terminus: a fixed tail appended
Given measured protein stability index, output t if it is greater than or equal to 4 and f if not.

• A6K = t
• S16K = f
• D21T = f
• S5Y = f
• Q23M = f
• T12E = t
• F1N = t
• S17P = f
• V10Y = t
• T12M = f
• S13F = f
• L19M = f
• F1C = t
• F1A = t
• L20Y = f
• S16C = f
• S17H = f
• D18Y = f
• S11D = t
• A7P = f
• P24R = f
• S13H = f
• A4C = f
• K14I = f
• T3A = f
• L20D = t
• T12A = t
